target: Sodium channel protein type 2 subunit alpha (Homo sapiens, UniProt Q99250); test: Inhibition of human Nav1.2 channel expressed in HEK cells by patch-clamp electrophysiology method
Sequence (Q99250 whole entry): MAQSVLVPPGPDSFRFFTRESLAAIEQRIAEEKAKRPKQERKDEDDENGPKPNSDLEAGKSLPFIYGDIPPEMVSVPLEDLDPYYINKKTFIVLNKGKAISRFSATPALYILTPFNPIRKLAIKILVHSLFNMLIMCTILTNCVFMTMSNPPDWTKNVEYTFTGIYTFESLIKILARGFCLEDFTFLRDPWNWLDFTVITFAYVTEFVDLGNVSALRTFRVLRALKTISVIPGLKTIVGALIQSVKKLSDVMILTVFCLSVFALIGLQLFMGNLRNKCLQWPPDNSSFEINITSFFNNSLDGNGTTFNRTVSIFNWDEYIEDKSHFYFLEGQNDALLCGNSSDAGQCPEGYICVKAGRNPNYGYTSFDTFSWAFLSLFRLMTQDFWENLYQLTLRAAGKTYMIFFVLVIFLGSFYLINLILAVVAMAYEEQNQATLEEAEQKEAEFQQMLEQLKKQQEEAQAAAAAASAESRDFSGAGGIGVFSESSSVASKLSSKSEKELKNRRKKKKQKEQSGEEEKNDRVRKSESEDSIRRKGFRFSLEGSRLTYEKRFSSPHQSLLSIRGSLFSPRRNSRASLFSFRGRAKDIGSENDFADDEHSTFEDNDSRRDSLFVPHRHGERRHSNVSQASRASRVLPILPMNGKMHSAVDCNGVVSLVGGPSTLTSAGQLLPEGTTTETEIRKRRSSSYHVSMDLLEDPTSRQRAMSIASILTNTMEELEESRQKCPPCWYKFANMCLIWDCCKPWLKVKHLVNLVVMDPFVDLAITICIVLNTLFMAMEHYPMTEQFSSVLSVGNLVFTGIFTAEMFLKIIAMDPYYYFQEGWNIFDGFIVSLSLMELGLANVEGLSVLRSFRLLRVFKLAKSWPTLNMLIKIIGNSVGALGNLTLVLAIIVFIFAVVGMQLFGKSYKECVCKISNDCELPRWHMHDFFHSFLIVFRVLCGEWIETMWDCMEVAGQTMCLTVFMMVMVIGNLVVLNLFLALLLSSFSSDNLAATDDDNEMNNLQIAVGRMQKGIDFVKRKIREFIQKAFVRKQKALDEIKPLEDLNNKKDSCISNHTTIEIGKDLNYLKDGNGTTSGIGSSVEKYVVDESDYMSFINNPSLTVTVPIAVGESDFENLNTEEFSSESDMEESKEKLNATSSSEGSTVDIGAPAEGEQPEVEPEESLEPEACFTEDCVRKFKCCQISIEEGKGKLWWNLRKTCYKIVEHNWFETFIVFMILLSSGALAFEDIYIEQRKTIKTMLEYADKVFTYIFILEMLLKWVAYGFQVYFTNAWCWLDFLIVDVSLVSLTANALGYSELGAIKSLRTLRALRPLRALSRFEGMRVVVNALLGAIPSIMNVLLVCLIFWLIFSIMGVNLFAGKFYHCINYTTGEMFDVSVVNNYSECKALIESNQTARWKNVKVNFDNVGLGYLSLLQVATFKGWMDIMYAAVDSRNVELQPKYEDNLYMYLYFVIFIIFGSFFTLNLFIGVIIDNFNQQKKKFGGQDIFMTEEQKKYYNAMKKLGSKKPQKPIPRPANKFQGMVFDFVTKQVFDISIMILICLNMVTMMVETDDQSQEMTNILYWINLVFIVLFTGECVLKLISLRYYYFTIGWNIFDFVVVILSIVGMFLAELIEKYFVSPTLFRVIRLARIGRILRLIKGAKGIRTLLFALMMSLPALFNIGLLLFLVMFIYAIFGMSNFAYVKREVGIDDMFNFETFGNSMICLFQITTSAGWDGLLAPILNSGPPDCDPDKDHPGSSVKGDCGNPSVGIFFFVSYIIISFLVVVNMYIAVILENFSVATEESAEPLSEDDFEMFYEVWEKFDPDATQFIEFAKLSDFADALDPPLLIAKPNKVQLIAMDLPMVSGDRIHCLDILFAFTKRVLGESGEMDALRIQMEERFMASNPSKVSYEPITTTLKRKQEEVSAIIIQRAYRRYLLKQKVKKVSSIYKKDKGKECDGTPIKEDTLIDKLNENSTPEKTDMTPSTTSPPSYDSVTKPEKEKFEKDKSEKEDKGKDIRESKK
measured.quantity: IC50 (nM)

Known IC50 results, listed for orientation:
FC(F)(F)c1cccc(-c2c[nH]c(-c3ccccc3)n2)c1 : 2700
Clc1ccc(-c2nc(-c3ccccc3)c[nH]2)cc1 : 1400
FC(F)(F)c1ccc(-c2c[nH]c(-c3ccccc3)n2)cc1 : 1400
FC(F)(F)c1cccc(-c2c[nH]c(-c3cccc(C(F)(F)F)c3)n2)c1 : 200

[A] O=[N+]([O-])c1ccc(-c2nc(-c3cccc(C(F)(F)F)c3)c[nH]2)cc1
[B] c1ccc(-c2c[nH]c(-c3ccccc3)n2)cc1
Could you point out whether the larger IC50 belongs to A or to B ? Label of pick, please. B
(B: 40600 nM, A: 2500 nM)
